Each recorded value in this set is attributed to patent US20020002171A1.

Test system: Caenorhabditis elegans
method.summary: C. elegans L1 nematicidal dose response in 96-well plates, 5 day visual score (Example 2; same procedure for Example 7, Table 3)
Type: in vivo
assay.conditions: Follow-up HTS run
Method: Caenorhabditis elegans adults were grown on Nematode Growth Medium (NGM) until they produced eggs, then the adults were removed. The eggs were allowed to hatch, and the L1 larvae collected. […] The nematodes had cleared all control wells by day 4, and nematode viability was scored by visual examination under a 100× dissecting microsope on day 5. […] The nematicidal activity of anthelmintic Compositions 48-168 were determined in accordance with the procedure outlined in Example 2.

| molecule | tested.on | Follow-up HTS Run Visual Score |
| --- | --- | --- |
| CCN(c1nc(NCc2ccccc2)ns1)C1CCCCC1 [compound 325] | Caenorhabditis elegans | L4/AD/B |
| CCCCCCCCCCNc1nsc(N2CCN(c3ccc(F)cc3)CC2)n1 [compound 273] | Caenorhabditis elegans | Dead |
| CCN(CC)C(=O)C1CCCN(c2nc(N3CCN(c4ccc(F)cc4)CC3)ns2)C1 (stereo not shown) [compound 223] | Caenorhabditis elegans | Dead |
| CCCCCCCCCCNc1nsc(N(CC)C2CCCCC2)n1 [compound 276] | Caenorhabditis elegans | Dead |
| C=CCN(CC=C)c1nc(NCc2ccc(F)cc2F)ns1 [compound 293] | Caenorhabditis elegans | L4/AD/B! |
| CCCCNc1nsc(N2CCN(c3cccc(C(F)(F)F)c3)CC2)n1 [compound 224] | Caenorhabditis elegans | L1 |
| CCCCCCCCCCNc1nsc(N(C)CCc2ccccc2)n1 [compound 283] | Caenorhabditis elegans | Dead |
| COCCN(CCOC)c1nc(NCc2ccc(C(F)(F)F)cc2)ns1 [compound 257] | Caenorhabditis elegans | L4/AD/B! |
| CCCCN(CC)c1nc(NC2CCCCCCCCCCC2)ns1 [compound 332] | Caenorhabditis elegans | Dead |
| CCOc1cc(CCNc2nsc(N3CCN(c4ccc(F)cc4)CC3)n2)ccc1OC [compound 267] | Caenorhabditis elegans | Dead |
| Cc1cccc(C)c1N1CCN(c2nsc(N(CC(C)C)CC(C)C)n2)CC1 [compound 231] | Caenorhabditis elegans | 2AD/B |
| CCOC(=O)CCN(Cc1ccccc1)c1nc(N2CCN(c3ccc(F)cc3)CC2)ns1 [compound 238] | Caenorhabditis elegans | L4/AD/B |
| Cc1cccc(C)c1N1CCN(c2nsc(N3CCC(O)CC3)n2)CC1 [compound 218] | Caenorhabditis elegans | Dead |
| CN(Cc1ccccc1)c1nc(NCc2ccccc2C(F)(F)F)ns1 [compound 323] | Caenorhabditis elegans | L4/AD/B! |
